- assayed.system: T1, RSV F subtype B, furin-cleaved ectodomain stabilized in the prefusion conformation (DS-Cav1) (Respiratory syncytial virus subtype B)
- T1 construct: extracellular domain; Trimeric soluble antigen; also called Prefusion subtype B
- procedure.summary: BLI, IgG on AHQ sensor, 100 nM antigen
With a cut-off of 400 pM, any Kd strictly below it is called Condition met; any Kd meeting it or above is called Condition not met.

{"binder": "ADI-18889 (antibody, V domains shown, full-length IgG from yeast; also called Antibody Number 244; Ab # 244) VH: QVQLQQWGAGLWKPSQTLSLTCAVHGGSLSGYSWSWIRQSPGRGLEWIGEVNRRGTTNYNPSLKGRVSISWDTSKNQVSLSLRSVTAADTATYYCAGTNVGFVNTHNDYYFGMDVWGQGTTVTVSS VL: DIVMTQSPSSLSASVGDRVTITCRASQSISNYVNWYQKKTGQVPKLLIYGASNLESGVPSRFSGGGSGTDFTLTISSLQPEDFATYYCQQSYSVPLTFGGGTKVEIK", "group.label": "Condition not met"}
{"binder": "ADI-18946 (antibody, V domains shown, full-length IgG from yeast) VH: QVQLVQSGGGVVQPGRSLRLSCAASGFTFSDYAMHWVRQAPGKGLEWVAIISYDANNKYYADSVKGRFTISRDNSKNTVYLQMNSLRPEDTAVYYCAKEEWLVPAYWGQGILVTVSS VL: QSVLTQPASVSGSPGQSITISCTGTSSDVGGYNYVSWYQQHPGKAPKLLIYEVSNRPSGVSNRFSGSKSGNTASLTISGLQPEDEADYYCSSYSTNSAPFGTGTKLTVL", "group.label": "Condition met"}
{"binder": "ADI-18958 (antibody, V domains shown, full-length IgG from yeast) VH: QVQLQESGAEVKMRGASVKVSCKASGYTFSHYGISWVRQAPGQGLEWMGFISAYNHNTKYAQTVQGRVTLSTDTSTSTAYMELRSLRPDDTAMYYCAREPPSDDAARLFDYWGQGTLVTVSS VL: ETTLTQSPRSLPVTLGQPASISCRSSQSLVYSEGNTYLSWFQQRPGQSPRRLIYKVSNRDSGVPDRFSGSGSGTDFTLKISRVEAEDVGVYYCMQGTQWPVTFGQGTKVEIK", "group.label": "Condition met"}
{"binder": "ADI-18948 (antibody, V domains shown, full-length IgG from yeast; also called Antibody Number 300; Ab # 300) VH: EVQLLESGGGVVQSGRSLRLSCVASGFTFSDSGMHWVRQAPGKGLEWVAGLFYDGSNKQYADSVKGRFTISRDNSKSTLYLQMNSLRAEDTAVYYCARAPYDIWSGYCLDYWGQGTLVTVSS VL: EIVLTQSPATLYMSPGERATLSCRASQSVNNNLAWYQQRPGQAPRLLIYGASTRATGIPARFSGSGSETEFTLTISSLQSEDFAVYHCQQYSIWPQTFGQGTKLEIK", "group.label": "Condition not met"}
{"binder": "ADI-18953 (antibody, V domains shown, full-length IgG from yeast) VH: QVQLVQSGAEVKKPGSSVKVSCKASGGTFSGYAINWVRQAPGQGLEWMGGIIHIFGTVNYAPKFQGRLTITADASTGTAYMELSSLMSEDTALYYCARDAYEVWTGSYLPPFDYWGQGTLVTVSS VL: ETTLTQSPGTLSLSPGERVTLSCRASQTVTSNYLAWYQQKPGQAPRLLIYDAFTRATGVPARFSGSGSGTDFTLTISRLEPEDFAVYYCQQYGSSFLTFGGGTKVEIK", "group.label": "Condition not met"}
